System: MDA-MB-468
Test: normalised viability (% of control), CellTiter-Blue; higher = more viable cells (about 100 = DMSO control)
Conditions: 100 nM; incubation time: 72 h
Each entry below carries its reported normalised viability.
Provide only the numeric value, understood in %.

>  <Compound>
CN1CC[C@H](c2c(O)cc(O)c3c(=O)cc(-c4ccccc4Cl)oc23)[C@H](O)C1 [Alvocidib]

>  <Measured number>
91.5

$$$$

Entry under test: Clc1ccc(C(c2ccccc2Cl)C(Cl)Cl)cc1 (stereo unspecified) [Mitotane] . Its normalised viability was 98.8

Entry under test: S=c1[nH]cnc2nc[nH]c12 [Mercaptopurine] . Its normalised viability was 108

Entry under test: CS(=O)(=O)c1ccc(C(=O)Nc2ccc(Cl)c(-c3ccccn3)c2)c(Cl)c1 [Vismodegib] . Its normalised viability was 113

Entry under test: OC[C@H]1O[C@@H](n2cnc3c2N=CNC[C@H]3O)C[C@@H]1O [Pentostatin] . Its normalised viability was 107

Entry under test: C[C@]1(c2nc3c(C(N)=O)cccc3[nH]2)CCCN1 [Veliparib] . Its normalised viability was 97.6
